targetDesc: canine T2R5 (Canis lupus)
Sequence (Q2ABD6 1-295): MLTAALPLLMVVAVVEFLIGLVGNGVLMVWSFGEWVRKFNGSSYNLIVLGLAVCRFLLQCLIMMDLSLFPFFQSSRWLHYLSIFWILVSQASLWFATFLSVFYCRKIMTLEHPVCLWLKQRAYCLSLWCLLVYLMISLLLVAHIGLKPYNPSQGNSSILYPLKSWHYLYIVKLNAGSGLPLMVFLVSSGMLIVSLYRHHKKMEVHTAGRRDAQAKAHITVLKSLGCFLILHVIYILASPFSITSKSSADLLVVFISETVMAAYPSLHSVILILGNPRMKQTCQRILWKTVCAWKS
assayName: Canine T2R5 activation, intracellular calcium assay in transiently transfected HEK293 cells, dose response (FIG. 7E)
measuredAttribute: pEC50
pEC50 is defined as minus the log10 of a concentration measured in mol/L.

Asked: Answer with the recorded pEC50 for the molecule listed here: c1cnc2c(c1)ccc1cccnc12
Given back: 3.25

====

targetDesc: canine T2R10 (Canis lupus, UniProt Q2ABD4)
Sequence (Q2ABD4 1-322): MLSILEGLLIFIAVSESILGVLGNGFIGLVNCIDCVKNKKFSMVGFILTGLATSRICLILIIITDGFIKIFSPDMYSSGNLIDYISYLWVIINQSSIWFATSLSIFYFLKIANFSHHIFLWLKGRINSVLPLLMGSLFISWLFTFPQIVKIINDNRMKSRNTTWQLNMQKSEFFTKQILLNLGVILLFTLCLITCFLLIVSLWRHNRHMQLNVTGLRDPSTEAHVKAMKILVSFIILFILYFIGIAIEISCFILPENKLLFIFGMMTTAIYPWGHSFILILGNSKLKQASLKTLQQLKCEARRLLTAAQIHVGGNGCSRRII
assayName: Canine T2R10 activation, intracellular calcium assay in transiently transfected HEK293 cells, dose response (FIG. 8E)
condition: agonist; HEK293 transient, cT2R10 (SEQ ID NO:23); calcium fluorescence or luminescence, FLIPR Tetra; at least 8 concentrations in triplicate
measuredAttribute: EC50 (nM)
Give just the numeric value; nM need not be written.

Asked: Specify reported EC50 for the molecule shown: CC(=O)OC(C)(C)/C=C/C(=O)[C@](C)(O)[C@H]1[C@H](O)C[C@@]2(C)[C@@H]3CC=C4[C@@H](C[C@H](O)C(=O)C4(C)C)[C@]3(C)C(=O)C[C@]12C [Cucurbitacin B]
Given back: 300

====

targetDesc: canine T2R43 (Canis lupus)
Sequence (A0A8I3S925 1-349): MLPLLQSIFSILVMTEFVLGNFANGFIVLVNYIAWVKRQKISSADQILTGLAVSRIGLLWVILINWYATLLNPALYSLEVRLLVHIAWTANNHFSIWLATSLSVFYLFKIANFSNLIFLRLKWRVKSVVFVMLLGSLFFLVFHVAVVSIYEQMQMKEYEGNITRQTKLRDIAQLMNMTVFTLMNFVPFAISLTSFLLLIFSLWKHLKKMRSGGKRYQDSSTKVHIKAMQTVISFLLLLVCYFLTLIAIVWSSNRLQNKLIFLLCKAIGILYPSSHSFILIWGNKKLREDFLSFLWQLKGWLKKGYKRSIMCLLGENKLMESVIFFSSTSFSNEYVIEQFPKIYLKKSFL
assayName: cell-based
measuredAttribute: pEC50
// pEC50 here means minus log10 of the molar concentration (mol/L)

Asked: # return recorded pEC50 for input CCCc1cc(=O)[nH]c(=S)[nH]1
Given back: 3.90
